Values were extracted from PubChem BioAssay (Tox21).

# Target Entity: Nuclear receptor subfamily 1 group I member 2 (Homo sapiens) (UniProt O75469)
# Measurement Description: Human pregnane X receptor (PXR) activation by small molecules, qHTS assay (AID 1346985); also: nearly all actives have a fitted effect of over 40% in size
# Run Parameters: DPX-2 HepG2 CYP3A4-luciferase, 24 h; series mostly up to 38.3 µM
Records with an inconclusive call do not appear. Calls of active or inactive are those of the source. Calls follow the shape of the dose curve; as a rule, active = well fitted activation curve with a large enough effect in the repeat runs; inconclusive = weak or mixed curves; inactive = flat fitted curve, though single readings scatter.
A correct response names exactly one class from active, inactive

Compound	Target Entity	Cat
CC(=O)Oc1cc(C(C)C)c(OCCN(C)C)cc1C	Nuclear receptor subfamily 1 group I member 2 (Homo sapiens) (UniProt O75469)	inactive
CCN[C@H]1CN(CCCOC)S(=O)(=O)c2sc(S(N)(=O)=O)cc21	Nuclear receptor subfamily 1 group I member 2 (Homo sapiens) (UniProt O75469)	inactive
Cc1cc(NS(=O)(=O)c2ccc(N)cc2)nc(C)n1	Nuclear receptor subfamily 1 group I member 2 (Homo sapiens) (UniProt O75469)	inactive

API: the following record is the query input.
Per the assay record, what outcome was assigned to CCN(CCCc1ccccc1)CCCc1ccccc1 ?
inactive
